experiment_notes: protein stability index of a GFP-peptide fusion (GPS, HEK-293T) (PSI 1-6); higher = more stable;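 further: 24-mer peptide tiles fused after GFP, lentivirally expressed, FACS-sorted into six equal bins by GFP/DsRed ratio, decoded by Illumina sequencing, PSI is the read-weighted mean bin number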
measurement_setup: treatment: MLN4924 1 uM, 8 h; c terminus: a fixed tail appended
Provide the reported protein stability index of each item.
One number for each entry.

# residue_codes, assay_value
data = [
    ("GHRSIYLALKLPDGSYALNGEYTL [ADAMTS4]", 2.63),
    ("FEAEPLPENTNRQLLLQFERLVVL [PI4K2A]", 2.14),
    ("EPVAAEPKQSGSFRYLQGMLEAGE [PDLIM4]", 4.6),
]

Below are 2 sequences. Give each one its protein stability index.
1. KLDQLDQDIENALSTSSSPSGTPT [DLC1]
2. THRLKDGSTMLIEAAKGGHTSVVC [ANKRD17]

1. 5.35
2. 2.56
